# merged literature set: pIC50 with Vascular endothelial growth factor receptor 2 (Homo sapiens, UniProt P35968)
pIC50: −log10 of the molar value.

Examples from the recorded data:
| structureSmilesString | pIC50 |
| --- | --- |
| Cc1[nH]c2c(c1C(=O)N1CCN(C)CC1)CCC/C2=C1/C(=O)Nc2ccc(F)cc21 | 7.10 |
| C=CC(=O)Nc1cc2c(Nc3ccc(Br)cc3F)ncnc2cc1OC[C@@H](C)NC(C)=O | 6.80 |
| O=C(Nc1ccc(Cl)c(C(=O)Nc2cnc(Nc3ccc(OCCN4CCCC4)cc3)nc2)c1)c1ccc(C(F)(F)F)cc1 | 7.92 |

// next entry
Prompt: Find the recorded pIC50 belonging to `O=C(c1cc(NS(=O)(=O)C2CC2)ccc1F)c1c[nH]c2ncccc12` and report it.
Completion: ≥ 5.00

----------
Here's a roundup of IC50 values tested on Vascular endothelial growth factor receptor 2 (Homo sapiens), taken from various published works.

| compound | IC50 |
| --- | --- |
| Cc1ccc(NC(=O)Nc2ccccc2)cc1C(=O)Nc1cnc(Nc2ccc(OCCN3CCCC3)cc2)nc1 | 0.168 µM |
| C=CC(=O)Nc1cc2c(Nc3ccc(Br)cc3F)ncnc2cc1OCCNC(=O)C1CCCN1C(=O)CC (stereo not shown) | 0.853 µM |
| CN(C(=O)Nc1ccc(Cl)c(C(F)(F)F)c1)c1ccc(Oc2ccnc(-c3nnco3)c2)cc1 | ≤ 10 µM |

Prompt: What IC50 value was documented for this compound, Cc1ccoc1C(=O)Nc1ccc(C2CN=C3c4ccccc4NC(=O)N3C2)cc1 (stereo not shown) ?
Completion: > 10 µM

Prompt: And `[2H]C1([2H])C([2H])([2H])C2(COc3cccc(-c4cn([C@H]5C[C@](O)(CO)C5)c5ncnc(N)c45)c3F)OC1([2H])C([2H])([2H])C2([2H])[2H]` ?
Completion: > 10 µM

Prompt: # repeat for `COc1cc(Nc2nc3c(NCCCN(C)C)nccn3n2)cc(OC)c1`
Completion: 3 to 50 µM

Prompt: One more compound: `Cn1cc(-c2cnc3[nH]cc(C(=O)c4c(Cl)ccc(OCC(F)(F)F)c4Cl)c3c2)cn1`
Completion: ≤ 10 µM

----------
Below are IC50 values for Vascular endothelial growth factor receptor 2 (Homo sapiens, UniProt P35968) collected from several publications.

| compound | targetOrTestSystem | measuredMetric | measValue |
| --- | --- | --- | --- |
| C=CC(=O)Nc1cc2c(Nc3ccc(Br)cc3F)ncnc2cc1OCC(CC)NC(=O)CN(C)C (stereo not shown) | Vascular endothelial growth factor receptor 2 (Homo sapiens, UniProt P35968) | IC50 | 984 nM |
| Cc1ccoc1C(=O)Nc1cccc(C2CN=C3c4ccccc4NC(=O)N3C2)c1 (stereo not shown) | Vascular endothelial growth factor receptor 2 (Homo sapiens, UniProt P35968) | IC50 | 6380 nM |
| C=CC(=O)Nc1cc2c(Nc3cc(Cl)c(Cl)cc3F)ncnc2cc1OCCNC(=O)CC | Vascular endothelial growth factor receptor 2 (Homo sapiens, UniProt P35968) | IC50 | 954 nM |
| CN1C(=O)C2(CC2)c2cc(NC(=O)Nc3ccc(Oc4ccnc(NC(=O)C5CC5)c4)cc3)ccc21 | Vascular endothelial growth factor receptor 2 (Homo sapiens, UniProt P35968) | IC50 | 8 nM |
| COc1cc(OC)cc(N(CC2CC2)c2ccc3ncc(-c4c[nH]cn4)nc3c2)c1 | Vascular endothelial growth factor receptor 2 (Homo sapiens, UniProt P35968) | IC50 | 2950 nM |

Prompt: What IC50 value was documented for this compound, `COc1cc(-c2cc3nccc(-c4cn[nH]c4)c3o2)cc(OC)c1OC` ?
Completion: < 300 nM

Prompt: What about `COCCOc1cc2ncnc(Oc3ccc(NC(=O)Nc4cc(C(F)(F)F)ccc4F)c(F)c3)c2c2c1OCCO2` ?
Completion: < 50 nM

Prompt: And for `CCOc1cc(-c2ccc(N3C[C@@H]4[C@H](C3)[C@H]4NC(=O)c3ncccc3Cl)nc2)c2c(C#N)cnn2c1` ?
Completion: > 100 nM

----------
What follows is literature data on pIC50 for Vascular endothelial growth factor receptor 2 (Homo sapiens, UniProt P35968).
pIC50: −log10 of the molar value.
measuredMetric: pIC50

Recorded pIC50, per entry:
| compound | measuredMetric | measValue |
| --- | --- | --- |
| COc1cccc(NC(=O)Nc2ccc(C3CN=C4c5ccccc5NC(=O)N4C3)cc2)c1 (stereo not drawn) | pIC50 | 5.83 |
| CC(=O)Nc1cc(NC(=O)Nc2ccc(Oc3ccnc(NC(=O)C4CC4)c3)c(F)c2)cc(C(F)(F)F)c1 | pIC50 | 7.85 |
| Cc1[nH]c2c(c1C(=O)N1CCC[C@H]1CN1CCCC1)CCC/C2=C1/C(=O)Nc2ccc(F)cc21 | pIC50 | 7.85 |
| O=C(Nc1ccc(Oc2ccnc(NC(=O)C3CC3)c2)cc1)Nc1cc(F)cc(C(F)(F)F)c1 | pIC50 | 8.15 |

P. CC(F)(F)c1cc(NC(=O)Nc2ccc(Oc3ccnc(NC(=O)C4CC4)c3)cc2)ccc1Cl
Q. C[C@@H](Nc1nc(Nc2ccc(S(C)=NS(=O)(=O)Cc3ccccc3)cc2)ncc1Br)C(C)(C)O (mixture of isomers)
Prompt: Between P and Q , whose recorded pIC50 is greater? Lab log: write the label of the selected item as the result.
Completion: Q
(Q: 7.82, P: 7.60)

----------
Field: IC50. System: Vascular endothelial growth factor receptor 2 (Homo sapiens). Provenance: assorted publications.

| structureSmilesString | IC50 |
| --- | --- |
| CC(F)(F)c1cncc(NC(=O)Nc2ccc(Oc3ccnc(NC(=O)C4CC4)c3)c(F)c2)c1 | 0.0175 µM |
| CNC(=O)c1cc(-c2cnc3ccc(N(CCN4CCCC4=O)c4cc(OC)cc(OC)c4)cc3n2)ccn1 | > 1 µM |
| O=C(c1cccc(O)c1)c1c[nH]c2ncc(-c3ccccc3)cc12 | ≤ 10 µM |

Prompt: # input molecule: `CCOc1ccc(C(=O)Nc2cccc(Oc3ccnc(-c4nnco4)c3)c2)cc1OCC` ; wanted: its IC50
Completion: ≤ 10 µM

----------
The entries below pair compounds with IC50 values for Vascular endothelial growth factor receptor 2 (Homo sapiens, UniProt P35968), as found in several publications.
measuredMetric: IC50 (nM)

| compound | unit | measValue |
| --- | --- | --- |
| N#Cc1cc2c(Oc3ccc(NC(=O)Nc4ccc(F)cc4)cc3)ccnc2cc1OCCCN1CCOCC1 | nM | 17 |

A. CC(C)Nc1cc(NC(=O)Nc2ccc(Oc3ccnc(NC(=O)C4CC4)c3)c(F)c2)cc(C(F)(F)F)c1
B. C[C@@H](Nc1nc(Nc2ccc(S(C)=NS(C)(=O)=O)cc2)ncc1Br)C(C)(C)O (mixture of isomers)
Prompt: For the two items A and B , which reports the higher IC50 value? Indicate which entry you chose by stating its label.
Completion: B
(B: 35 nM, A: 6.8 nM)

----------
A compilation of IC50 values for Vascular endothelial growth factor receptor 2 (Homo sapiens) from the published literature.

Prompt: Consider the molecule shown here: `COc1cc(OC)cc(N(CCCO)c2ccc3ncc(-c4ccnc(C(=O)N5CCOCC5)c4)nc3c2)c1` What is its recorded IC50?
Completion: 0.245 µM

Prompt: Next up: `COc1cc2nccc(Oc3ccc(NC(=O)c4c(C)ccn(C(C)C)c4=O)cc3F)c2nc1OC`
Completion: 0.1 to 0.3 µM

Prompt: Now this one: `Nc1nc(N[C@@H](CO)Cc2c[nH]c3ccccc23)cc(-c2cc(-c3ccc(O)cc3)ccc2O)n1`
Completion: 1 to 20 µM

Prompt: Param item: COCC(O)Cn1cc(-c2ccnc3cc(-c4cc(OC)c(OC)c(OC)c4)oc23)cn1 (stereo not shown)
Completion: 0.3 to 3 µM

----------
Consider the following pIC50 data for Vascular endothelial growth factor receptor 2 (Homo sapiens, UniProt P35968), collected from several reports.
pIC50: −log10 of the molar value.

Some solved cases for reference:
| compound | pIC50 |
| --- | --- |
| CNc1ncc(C(=O)Nc2ccc(Oc3ccnc4cc(OC)c(OC)nc34)c(F)c2)c(=O)n1-c1ccc(F)cc1 | > 7.00 |
| Cc1cccc(NC(=O)Nc2ccc(C#Cc3ccc4nccn4n3)cc2)c1 | 7.64 |
| Cc1cc(Oc2cc(NC(=O)C3CC3)ncn2)ccc1NC(=O)Nc1ccc(Cl)c(C(F)(F)F)c1 | 7.96 |
| C#CCNC(=S)Nc1ccc(Oc2ccnc3cc(OC)c(C(N)=O)cc23)cc1Cl | 6.70 to 7.30 |

Prompt: Given the compound `O=C(c1cccc(O)c1)c1c[nH]c2ncc(-c3cccs3)cc12` , what is its reported pIC50?
Completion: ≥ 5.00

Prompt: Please give the result for `COc1cc(OC)cc(N(CCNC(C)C)c2ccc3ncc(-n4cnc(COC(C)=O)c4)nc3c2)c1` too.
Completion: 6.60

Prompt: Then this compound: `CCOc1cc(-c2ccc(N3C[C@@H]4C[C@@](C)(NC(=O)c5cc(F)ccc5C)C[C@@H]4C3)nc2)c2c(C#N)cnn2c1`
Completion: < 7.00

Prompt: For `CC(=O)Nc1cccc(-c2ccnc3[nH]cc(C(=O)c4ccccc4F)c23)c1` then?
Completion: ≥ 5.00

Prompt: Would you kindly repeat that for COC(=O)c1ccc2c(c1)NC(=O)N1CC(c3ccc(N(C)C(=O)Nc4cc(C(F)(F)F)ccc4F)cc3)CN=C21 (stereo not shown) ?
Completion: < 5.00

Prompt: Now this one: `COc1cccc(-c2cnc(Nc3ccc(N4CCN(C)CC4)cc3C)o2)c1`
Completion: > 6.00

Prompt: For `COc1cccc(-c2cnc(Nc3ccc(CCN(C)C)cc3)o2)c1` then?
Completion: > 6.00

Prompt: `COc1cc(OC)cc(N(CC2CC2)c2ccc3ncc(-c4cccc(N5CCOCC5)c4)nc3c2)c1` , same question.
Completion: 5.71

Prompt: How about this compound: `CC(C)n1cc(C(=O)Nc2ccc(Oc3ccnc4cc(OCCCN5CCOCC5)c5c(c34)OCCO5)c(Cl)c2)c(=O)n(-c2ccc(F)cc2)c1=O`
Completion: 5.30 to 6.30

Prompt: // repeat for `CS(=O)(=O)c1cc(NC(=O)Nc2ccc(Oc3ccnc(NC(=O)C4CC4)c3)nc2)cc(C(F)(F)F)c1` and report
Completion: 8.34

Prompt: And `c1cc(-c2nccn3nc(Nc4ccc(N5CCOCC5)cc4)nc23)c2cc[nH]c2c1` ?
Completion: > 6.52

Prompt: Now the same for `Cn1cc(-c2cc(-c3ccc(N4C[C@@H]5[C@H](C4)[C@@H]5NC(=O)Nc4ccccc4)nc3)c3c(C#N)cnn3c2)cn1`
Completion: ≥ 8.00

Prompt: Also, `NS(=O)(=O)c1ccc(NC=C2C(=O)Nc3ccncc32)cc1` please.
Completion: 5.00 to 6.00

Prompt: What do you have for `O=C(c1c(F)ccc(NS(=O)(=O)C2CC2)c1F)c1c[nH]c2ncc(Br)cc12` ?
Completion: ≥ 5.00

Prompt: Same read-out for `C=CC(=O)Nc1cc2c(Nc3ccc(Br)cc3F)ncnc2cc1OCCNC(=O)CCN` ?
Completion: 6.13

Prompt: Now the compound `Fc1nc(NCc2cccnc2OCC(F)(F)F)ccc1Cc1c[nH]c2ncncc12`
Completion: ≥ 5.00

Prompt: Try `COc1cccc(-c2cnc(Nc3ccc(N4CCN(C)CC4)c(Cl)c3)o2)c1` next.
Completion: > 6.00

Prompt: Same read-out for `O=C(Nc1cccc(C(F)(F)F)c1)Nc1ccc(Oc2ccnc(NC(=O)C3CC3)c2)c(F)c1` ?
Completion: 8.43

Prompt: How about `Cc1[nH]c(/C=C2\C(=O)Nc3ccc(F)cc32)c(C)c1NC(=O)[C@@H]1CCCN1` ?
Completion: 7.19

Prompt: Param item: `CCOC(=O)C(C)(C)CNc1cc(NC(=O)Nc2ccc(Oc3ccnc(NC(=O)C4CC4)c3)c(F)c2)cc(C(F)(F)F)c1`
Completion: 7.89

Prompt: For `COc1cc(CNC(=O)Nc2cccc(Oc3ccnc(-c4nnco4)c3)c2)cc(OC)c1OC` then?
Completion: ≥ 5.00

Prompt: Now consider `C[C@@H](O)[C@@H](C)Oc1nc(Nc2ccc(Nc3ncc(Cl)c(NCCO)n3)cc2)ncc1Br` and answer again.
Completion: 7.14
